# target-or-test-system: Platelet-activating factor receptor (Rattus norvegicus) (UniProt P46002)
# Sequence (P46002 whole entry): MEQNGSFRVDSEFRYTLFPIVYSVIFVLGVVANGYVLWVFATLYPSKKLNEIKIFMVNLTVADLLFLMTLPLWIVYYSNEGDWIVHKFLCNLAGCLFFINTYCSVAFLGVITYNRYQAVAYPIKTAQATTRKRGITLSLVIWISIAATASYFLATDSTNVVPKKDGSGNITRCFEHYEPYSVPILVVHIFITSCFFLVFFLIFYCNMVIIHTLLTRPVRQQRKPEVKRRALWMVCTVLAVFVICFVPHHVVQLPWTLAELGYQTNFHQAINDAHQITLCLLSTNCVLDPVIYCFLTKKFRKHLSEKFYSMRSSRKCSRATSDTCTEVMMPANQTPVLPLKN
# test-method-notes: Tested in vivo for to block the effect of exogenously administered PAF upon oral administration in PAF-induced rat skin permeability assay
# Type: functional, organism-based
So basically, if ED50 comes in under 0.5 mg/kg it's MET, and if it's 0.5 mg/kg or more it's NOT MET.

Consider the following illustrative entries.
INSERT INTO measurements (compound, assigned_category) VALUES
  ('Cc1nc2cnccc2n1CCCCCC(=O)c1cn(C(=O)N(C)C)c2cccc(-c3ccc(F)cc3)c12', 'NOT MET'),
  ('Cc1nc2cnccc2n1Cc1ccc(C(=O)c2cn(C(=O)N(C)C)c3cccc(Br)c23)cc1', 'MET'),
  ('Cc1nc2cnccc2n1Cc1ccc(C(=O)c2cn(C(=O)N(C)C)c3cccc(OC(=O)N(C)C)c23)cc1F', 'NOT MET'),
  ('CCc1cccc2c1c(C(=O)c1ccc(Cn3c(C)nc4cnccc43)cc1)cn2C(=O)N(C)C', 'MET');

Query block: Just wondering, is ED50 of COC(=O)c1cccc2c1c(C(=O)CCCCCn1c(C)nc3cnccc31)cn2C(=O)N(C)C below 0.5 mg/kg?
Result block: NOT MET

* * *

# target-or-test-system: UniProt:P46002
# test-method-notes: Ability to block the effect of exogenously administered PAF upon intravenous administration in PAF-induced rat skin permeability assay
# Assay type: functional, organism-based
// reported log10(ED50) for each item listed
Plainly stated, the numbers are log10 of ED50 given in mg/kg.

# annotated cases, reported log10(ED50) shown
INSERT INTO assay_data (smi, recorded_result) VALUES
  ('Cc1nc2cnccc2n1Cc1ccc(C(=O)c2cn(C(=O)N(C)C)c3cccc(C(=O)OC(C)C)c23)cc1', -2.22),
  ('COC(=O)c1cccc2c1c(C(=O)c1ccc(Cn3c(C)nc4cnccc43)s1)cn2C(=O)N(C)C', -0.92),
  ('Cc1nc2ncccc2n1Cc1ccc(C(=O)c2cn(C(=O)N(C)C)c3cccc(Cl)c23)cc1', -0.47);

For COC(=O)c1cccc2c1c(C(=O)c1ccc(Cn3c(C)nc4cnccc43)cc1)cn2S(=O)(=O)C(C)C the molecule record lists log10(ED50) as -0.92

Measured log10(ED50) of COC(=O)c1cccc2c1c(C(=O)c1ccc(Cn3c(C)nc4cnccc43)cc1)cn2CC(=O)N(C)C : -1.92

log10(ED50) measured on COC(=O)c1cc(C#Cc2ccccc2)cc2c1c(C(=O)c1ccc(Cn3c(C)nc4cnccc43)cc1)cn2C(=O)N(C)C = -2.40

Please fill in: log10(ED50) reported for Cc1nc2cnccc2n1Cc1ccc(C(=O)c2cn(C(=O)N(C)C)c3cccc(F)c23)cc1 = -0.74

Record summary for Cc1nc2cnccc2n1CCCCCC(=O)c1cn(C(=O)N(C)C)c2cccc(-c3ccc(F)cc3)c12 : reported log10(ED50) = -2.30

Measured log10(ED50) of Cc1nc2cnccc2n1Cc1ccc(C(=O)c2cn(C(=O)N(C)C)c3cccc(NC(=O)c4ccccc4)c23)cc1 : -0.96

Recorded log10(ED50) (molecule Cc1nc2cnccc2n1Cc1ccc(C(=O)c2cn(C(=O)N(C)C)c3cc(-c4ccc(F)cc4)ccc23)cc1 ): -1.17

* * *

# target-or-test-system: UniProt:P46002
# test-method-notes: Tested in vivo for to block the effect of exogenously administered PAF upon oral administration in PAF-induced rat skin permeability assay
# Format: functional, organism-based
experimental-readout: ED50 (mg/kg)
Numbers only; they are read as mg/kg.

The following compounds have reported results that may help.
INSERT INTO assay_data (smi, unit_string, recorded_result) VALUES
  ('C#Cc1cccc2c1c(C(=O)c1ccc(Cn3c(C)nc4cnccc43)cc1)cn2C(=O)N(C)C', 'mg/kg', 0.14),
  ('Cc1nc2cnccc2n1Cc1ccc(C(=O)c2cn(C(=O)N(C)C)c3cccc(C(=O)N(C)C)c23)cc1', 'mg/kg', 1.3);

Entry COC(=O)c1cccc2c1c(C(=O)c1ccc(Cn3c(C)nc4cnccc43)cc1)cn2C(=O)N1CCCC1 ; assay system UniProt:P46002; ED50 recorded at 1.2

* * *

# target-or-test-system: Platelet-activating factor receptor (Rattus norvegicus) (UniProt P46002)
# test-method-notes: Ability to block the effect of exogenously administered PAF upon intravenous administration in PAF-induced rat skin permeability assay
# Format: functional, organism-based
So basically, if ED50 comes in under 0.2 mg/kg it's Condition met, and if it's 0.2 mg/kg or more it's Condition not met.

Query block: # check: ED50 < 0.2 mg/kg for Cc1cccc2c1c(C(=O)CN1CCC(n3c(C)nc4cnccc43)CC1)cn2C(=O)N(C)C
Result block: Condition met

Query block: A record lists COC(=O)c1cc(Br)cc2c1c(C(=O)c1ccc(Cn3c(C)nc4cnccc43)cc1)cn2C(=O)N(C)C . Is its ED50 below 0.2 mg/kg?
Result block: Condition met

Query block: Please check: ED50 for COC(=O)c1ccc2c(c1)c(C(=O)c1ccc(Cn3c(C)nc4cnccc43)cc1)cn2C(=O)N(C)C , strictly under 0.2 mg/kg or not?
Result block: Condition not met

* * *

# target-or-test-system: Platelet-activating factor receptor (Rattus norvegicus) (UniProt P46002)
# test-method-notes: Ability to block the effect of exogenously administered PAF upon intravenous administration in PAF-induced rat skin permeability assay
# Type: functional, organism-based
experimental-readout: ED50 (mg/kg)
Entry rule: numbers only, all in mg/kg.

INSERT INTO assay_data (smi, experimental_readout, recorded_result) VALUES
  ('Cc1nc2cnccc2n1Cc1ccc(C(=O)c2cn(C(=O)N(C)C)c3cccc(Cl)c23)cc1', 'ED50', 0.008),
  ('COC(=O)c1cccc2c1c(S(=O)(=O)c1ccc(Cn3c(C)nc4cnccc43)cc1)cn2C(=O)N(C)C', 'ED50', 0.48);

In plain terms, COC(=O)c1cccc2[nH]cc(C(=O)c3ccc(Cn4c(C)nc5cnccc54)cc3)c12 has a documented ED50 of 0.15

Query Cc1nc2ccncc2n1Cc1ccc(C(=O)c2cn(C(=O)N(C)C)c3cc(-c4ccc(F)cc4)ccc23)cc1 yields ED50 of 1.1

Briefly, ED50 measured for COC(=O)c1cc(-c2cc3ccccc3o2)cc2c1c(C(=O)c1ccc(Cn3c(C)nc4cnccc43)cc1)cn2C(=O)N(C)C : 0.011

* * *

# target-or-test-system: Platelet-activating factor receptor (Homo sapiens, UniProt P25105)
# Sequence (P25105 whole entry): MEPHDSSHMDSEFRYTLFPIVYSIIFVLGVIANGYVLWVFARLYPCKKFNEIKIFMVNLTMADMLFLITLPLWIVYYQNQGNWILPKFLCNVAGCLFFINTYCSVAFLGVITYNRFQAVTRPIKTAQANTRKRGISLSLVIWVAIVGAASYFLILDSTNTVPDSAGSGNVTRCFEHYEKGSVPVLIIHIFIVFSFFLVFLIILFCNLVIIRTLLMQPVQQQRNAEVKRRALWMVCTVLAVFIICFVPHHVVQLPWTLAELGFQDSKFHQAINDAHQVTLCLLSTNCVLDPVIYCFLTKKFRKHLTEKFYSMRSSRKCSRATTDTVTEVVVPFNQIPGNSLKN
Catalogue of Ki values
Kindly answer with a numeric value in pM, unit omitted.

INSERT INTO assay_data (molecule, unit_string, recorded_result) VALUES
  ('C#Cc1cccc2c1c(C(=O)c1ccc(Cn3c(C)nc4cnccc43)c(F)c1)cn2C(=O)N(C)C', 'pM', 570);

// next item, Ki requested
Entry CCOC(=O)[C@H](CC(C)C)N(C)S(=O)(=O)c1ccc(Cn2c(C)nc3cnccc32)cc1 [LEXIPAFANT] , Platelet-activating factor receptor (Homo sapiens, UniProt P25105) data, Ki value: 380

* * *

# test-method-notes: The compound was evaluated for its bioavailability in rat
# Format: ADME, organism-based
# assay-conditions: in vivo
experimental-readout: bioavailability (%)
Write down the numeric answer in % and omit the unit.

Value of measured bioavailability for the entry CC(=O)OC[n+]1cccc([C@H]2SCc3c(C(=O)c4cn(C(=O)N(C)C)c5cc(-c6ccc(F)cc6)ccc45)ccn32)c1.[Cl-] : 46

* * *

Quick reference: ED50 of the listed items.
# target-or-test-system: Platelet-activating factor receptor (Rattus norvegicus) (UniProt P46002)
# test-method-notes: Ability to block the effect of exogenously administered PAF upon intravenous administration in PAF-induced rat skin permeability assay
# Format: functional, organism-based
Unit mg/kg implied. Number only.

Solved cases below.
INSERT INTO results (smi, target_or_test_system, recorded_result) VALUES
  ('CCc1cccc2c1c(C(=O)c1ccc(Cn3c(C)nc4cnccc43)cc1)cn2C(=O)N(C)C', 'Platelet-activating factor receptor (Rattus norvegicus) (UniProt P46002)', 0.003),
  ('COC(=O)c1cccc2c1c(C(=O)c1ccc(Cn3c(C)nc4ccncc43)cc1)cn2C(=O)N(C)C', 'Platelet-activating factor receptor (Rattus norvegicus) (UniProt P46002)', 0.24),
  ('COC(=O)c1cccc2c1c(C(=O)c1ccc(Cn3c(C)nc4cnccc43)cc1)cn2C(N)=O', 'Platelet-activating factor receptor (Rattus norvegicus) (UniProt P46002)', 0.12);

Now, please, on to the next compound.
Short answer for COC(=O)c1cccc2c1c(C(=O)c1ccc(Cn3c(C)nc4cccnc43)cc1)cn2C(=O)N(C)C : ED50 was 1.2

* * *

# test-method-notes: The bioavailability in monkey was evaluated
# Assay type: ADME, organism-based
# assay-conditions: primates, in vivo
experimental-readout: bioavailability

C#Cc1cccc2c1c(C(=O)c1ccc(Cn3c(C)nc4cnccc43)c(F)c1)cn2C(=O)N(C)C has a reported bioavailability of 56%

The reported numbers originate from ChEMBL document CHEMBL1131207.
